Here the recorded O2 permeability is given for each entry.
State the value with its unit after it.

Illustrative cases are given below, each with its answer.
Molecule: *c1ccc2c(c1)C1c3ccccc3C2c2cc(N3C(=O)c4ccc(C(c5ccc6c(c5)C(=O)N(*)C6=O)(C(F)(F)F)C(F)(F)F)cc4C3=O)ccc21 (repeat unit)
O2 permeability: 43.9 Barrer
--
Molecule: *Oc1ccc(S(=O)(=O)c2ccc(Oc3ccc(Oc4ccc(*)cc4)cc3)cc2)cc1 (repeat unit)
O2 permeability: 1.1 Barrer
--
Molecule: *c1ccc(Cc2ccc(N3C(=O)c4ccc(Sc5ccc6c(c5)C(=O)N(*)C6=O)cc4C3=O)cc2)cc1 (repeat unit)
O2 permeability: 0.246 Barrer
--
Molecule: *c1cccc2c(-n3c(=O)c4cc5oc6cc7c(cc6oc5cc4c3=O)C3(CC(C)(C)c4cc5oc6cc8c(=O)n(*)c(=O)c8cc6oc5cc43)CC7(C)C)cccc12 (repeat unit)
O2 permeability: 77 Barrer
--
Molecule: *CC(*)OC(C)=O (repeat unit)
O2 permeability: 0.488 Barrer
--
Molecule: *CC=C(C*)[Si](C)(OC(C)C)OC(C)C (repeat unit)
O2 permeability: 69.2 Barrer
--
Molecule: *Oc1ccc(S(=O)(=O)c2ccc(Oc3c(C)cc(C(c4cc(C)c(*)c(C)c4)(C(F)(F)F)C(F)(F)F)cc3C)cc2)cc1 (repeat unit)
O2 permeability: 18 Barrer
--
Molecule: *Oc1ccc(S(=O)(=O)c2ccc(Oc3ccc(Cc4ccc(*)cc4)cc3)cc2)cc1 (repeat unit)
O2 permeability: 1.1 Barrer

Task: Find the measured O2 permeability of *c1c(C)cc2c(c1C)C1c3ccccc3C2c2cc(C)c(N3C(=O)c4ccc5c6c(ccc(c46)C3=O)C(=O)N(*)C5=O)c(C)c21 (repeat unit) and report it.
Output: 390 Barrer

Task: Find the measured O2 permeability of *CC(*)(C)C(=O)OC(C)(C)C (repeat unit) and report it.
Output: 4.53 Barrer

Task: Find the measured O2 permeability of *C(=C(*)c1ccc([Si](c2ccccc2)(c2ccccc2)c2ccccc2)cc1)c1ccccc1 (repeat unit) and report it.
Output: 12.1 Barrer

Task: Find the measured O2 permeability of *=CC1CC(C=*)C2C(=O)N(c3ccccc3)C(=O)C12 (repeat unit) and report it.
Output: 1.44 Barrer

###

Here the recorded H2 permeability is given for each entry.
Numbers only; they are read as Barrer.

Compound: *c1ccc(-c2ccc(C(*)(c3ccccc3)C(F)(F)F)cc2)cc1 (repeat unit)
H2 permeability, Barrer: 114
--
Compound: *C(=C(*)c1cccc(O)c1)c1ccc(C(C)(C)C)cc1 (repeat unit)
H2 permeability, Barrer: 1700
--
Compound: *C1C(*)C2CC1C1CC([Si](C)(C)C)C21 (repeat unit)
H2 permeability, Barrer: 2060

# next compound below
Task: Find the measured H2 permeability of *Oc1ccc(C(C)(C)c2cccc(C(C)(C)c3ccc(Oc4ccc(S(=O)(=O)c5ccc(*)cc5)cc4)cc3)c2)cc1 (repeat unit) and report it.
Output: 10.6

###

CO2 permeability vs 20 Barrer: at or above is criterion met, below is criterion not met.

Observe how each entry below is paired with its result.
Compound: *c1ccc(-c2cc(C)c(-c3ccc(*)cc3C)cc2C)c(C)c1 (repeat unit)
Class: criterion met

Compound: *C(=C(*)c1ccc([Si](C)(C)CCCCCCCC)cc1)c1ccccc1 (repeat unit)
Class: criterion met

Compound: *c1ccc(Oc2ccc(N3C(=O)c4ccc(C(c5ccc6c(c5)C(=O)N(*)C6=O)(C(F)(F)F)C(F)(F)F)cc4C3=O)cc2)cc1 (repeat unit)
Class: criterion met

Compound: *Cc1ccc(C*)c(CC)c1 (repeat unit)
Class: criterion not met

Compound: *CC(*)OC1CCCCC1 (repeat unit)
Class: criterion not met

Task: Given *Oc1ccc(S(=O)(=O)c2ccc(Oc3c(C)cc(Cc4cc(C)c(*)c(C)c4)cc3C)cc2)cc1 (repeat unit) , state whether its CO2 permeability is at least 20 Barrer.
Output: criterion not met

Task: Given *=CC1CC(C=*)C2C(=O)N(C3CCCC3)C(=O)C12 (repeat unit) , state whether its CO2 permeability is at least 20 Barrer.
Output: criterion not met

Task: Given *Nc1ccc(*)cc1 (repeat unit) , state whether its CO2 permeability is at least 20 Barrer.
Output: criterion not met

Task: Given *CC(*)C(=O)OCCCCCCCCCCCCCC (repeat unit) , state whether its CO2 permeability is at least 20 Barrer.
Output: criterion met

Task: Given *CC(*)c1ccccc1 (repeat unit) , state whether its CO2 permeability is at least 20 Barrer.
Output: criterion not met

Task: Given *Oc1ccc(C(C)(C)c2ccc(OC(=O)c3cc(C(*)=O)cc(C(C)(C)C)c3)c(C(C)C)c2)cc1C(C)C (repeat unit) , state whether its CO2 permeability is at least 20 Barrer.
Output: criterion not met

Task: Given *C(=C(*)c1ccc2c(c1)C(C)(C)c1ccccc1-2)c1ccc(F)cc1 (repeat unit) , state whether its CO2 permeability is at least 20 Barrer.
Output: criterion met

Task: Given *C(=C(*)c1ccc2c(c1)C1(CC1)c1ccccc1-2)c1ccc([Si](C)(C)C)cc1 (repeat unit) , state whether its CO2 permeability is at least 20 Barrer.
Output: criterion met

Task: Given *c1ccc(*)c(C(=O)c2ccccc2)c1 (repeat unit) , state whether its CO2 permeability is at least 20 Barrer.
Output: criterion not met

Task: Given *C(=C(*)c1ccc2c(c1)C(C)(C)c1ccccc1-2)c1ccc([Si](C)(C)C)cc1 (repeat unit) , state whether its CO2 permeability is at least 20 Barrer.
Output: criterion met

Task: Given *c1ccc(N2C(=O)c3ccc([Si](C)(C)c4ccc5c(c4)C(=O)N(*)C5=O)cc3C2=O)cc1 (repeat unit) , state whether its CO2 permeability is at least 20 Barrer.
Output: criterion not met

Task: Given *CC=C(C*)[Si](C)(C)OC(C)C (repeat unit) , state whether its CO2 permeability is at least 20 Barrer.
Output: criterion met

Task: Given *CC=C(C*)[Si](OC(C)C)(OC(C)C)OC(C)C (repeat unit) , state whether its CO2 permeability is at least 20 Barrer.
Output: criterion met

Task: Given *c1ccc(Cc2ccc(N3C(=O)c4ccc(-c5ccc6c(c5)C(=O)N(*)C6=O)cc4C3=O)cc2Br)c(Br)c1 (repeat unit) , state whether its CO2 permeability is at least 20 Barrer.
Output: criterion not met

###

Here the recorded CO2 permeability is given for each entry.
Numbers only; they are read as Barrer.

Molecule: *Oc1cc2c(cc1O*)C1(CC2(C)CC)c2cc3c(cc2C(C)(CC)C1C)Oc1c(C#N)c(*)c(*)c(C#N)c1O3 (repeat unit)
Value Observed: 6100

Molecule: *C=CCCC* (repeat unit)
Value Observed: 2000

Molecule: *Oc1c(C)cc(*)c([N+](=O)[O-])c1C (repeat unit)
Value Observed: 40.4

Task: Find the measured CO2 permeability of *CC(*)c1ccncc1 (repeat unit) and report it.
Output: 3.31

###

Could you mark each record label 1 if its H2 permeability falls strictly under 40 Barrer, and label 0 if it equals or exceeds it?

Observe how each entry below is paired with its result.
Compound: *C(C)=C(*)CCCCCC (repeat unit)
Class: label 0

Compound: *C(=C(*)c1ccc2c(c1)C(C)(C)CC2(C)C)c1ccc(F)cc1 (repeat unit)
Class: label 0

Compound: *CC(C)O* (repeat unit)
Class: label 0

Compound: *OC1OC(COC(=O)NC(C)(C)C)C(*)C(OC(C)=O)C1OC(C)=O (repeat unit)
Class: label 1

Compound: *c1ccc(C)c(-c2cc(C)c(-c3cc(*)ccc3C)cc2C)c1 (repeat unit)
Class: label 0

Task: Lab note: H2 permeability threshold 40 Barrer. Does this compound come in strictly under it? *c1ccc2c(-c3c(O)ccc4cc(N5C(=O)c6ccc(Oc7ccc8c(c7)C(=O)N(*)C8=O)cc6C5=O)ccc34)c(O)ccc2c1 (repeat unit)
Output: label 1

Task: Lab note: H2 permeability threshold 40 Barrer. Does this compound come in strictly under it? *Oc1ccc(C(c2ccc(Oc3c(F)c(F)c(COC(C4CCCC(C(OCc5c(F)c(F)c(*)c(F)c5F)(C(F)(F)F)C(F)(F)F)C4)(C(F)(F)F)C(F)(F)F)c(F)c3F)cc2)(C(F)(F)F)C(F)(F)F)cc1 (repeat unit)
Output: label 1

Task: Lab note: H2 permeability threshold 40 Barrer. Does this compound come in strictly under it? *C(C)=C(*)CCCCCCC (repeat unit)
Output: label 0

###

Here the recorded CO2 permeability is given for each entry.
State the value with its unit after it.

Task: Find the measured CO2 permeability of *c1ccc(Oc2ccc(C(*)(c3ccccc3)C(F)(F)F)cc2)cc1 (repeat unit) and report it.
Output: 17 Barrer

Task: Find the measured CO2 permeability of *CC(*)CC(C)C (repeat unit) and report it.
Output: 92.6 Barrer

Task: Find the measured CO2 permeability of *Oc1c(C)cc(*)c(C(=O)c2ccc(Cl)cc2)c1C (repeat unit) and report it.
Output: 16.8 Barrer
